Published pIC50 for ERK1 (Homo sapiens), assembled from different documents, is shown next.
pIC50: −log10 of the molar value.
reported_metric: pIC50

Study these solved cases before continuing.
> print(dat)
                                   compound  data.value
1  CCC(=O)Nc1ccccc1Nc1nc(Nc2ccc3c(c2)OCCOCCOCCO3)nc2[nH]cnc12        6.15
2  Cc1cnc(Nc2ccnn2C)nc1-c1cc2n(c1)C(=O)N([C@H](CO)c1ccc(F)c(Cl)c1)C2        7.85
3  COc1cc(F)cc([C@@H](CO)NC(=O)[C@@H](C)N2CCc3sc(-c4ccnc(NC5CCOCC5)n4)cc3C2=O)c1        8.30

[P] COC[C@@H](NC(=O)c1nc2cc3c(-c4ccncc4)n[nH]c3cc2[nH]1)c1ccccc1
[Q] O=c1ccc2cnc(Nc3ccc(N4CCC(OCC5(CO)COC5)CC4)cc3)nc2n1[C@@H]1CC2CCC1C2 (stereo partly drawn)
Asked: Lab notebook, comparison: P versus Q , higher pIC50 goes to which? Return value: the label identifying the chosen record.
Given back: P
(P: 8.52, Q: 4.97)

[1] N#C[C@@H](NC(=O)c1nc2cc3c(-c4ccncc4)n[nH]c3cc2[nH]1)c1ccccc1
[2] COc1ccc(-c2n[nH]c3cc4[nH]c(C(=O)N[C@H](C)c5ccccc5)nc4cc23)cc1
Asked: Lab notebook, comparison: 1 versus 2 , higher pIC50 goes to which? Return value: the label identifying the chosen record.
Given back: 1

[P] Cn1nccc1Nc1nccc(-c2cc3n(c2)C(=O)N([C@H](CO)c2cccc(F)c2)C3)n1
[Q] C[C@@H](NC(=O)c1nc2cc3c(-c4ccncc4)n[nH]c3cc2[nH]1)c1ccccc1
[R] C[C@@H](NC(=O)c1nc2cc3c(-c4ccncc4)n[nH]c3cc2[nH]1)c1ccccn1
[S] COc1ccc(-c2n[nH]c3cc4[nH]c(C(=O)N[C@H](C)c5ccccc5)nc4cc23)cn1
[T] O=C(N[C@H](CO)c1cccc(Cl)c1)c1nc2cc3c(-c4ccncc4)n[nH]c3cc2[nH]1
Asked: Kindly order the items shown according to pIC50, from the highest value down. Note for the reader: the ranking is given by listing the labels in the order requested.
Given back: T, Q, S, R, P

[I] CN(C)C[C@@H](NC(=O)c1nc2cc3c(-c4ccncc4)n[nH]c3cc2[nH]1)c1ccccc1
[II] COc1ccc(CNC(=O)c2nc3cc4c(-c5ccncc5)n[nH]c4cc3[nH]2)cc1OC
Asked: Hello, I am sorting some records. Could you say if I or II has the smaller pIC50 value? Return value: the label identifying the chosen record.
Given back: II

[a] COc1cc(F)cc([C@@H](CO)NC(=O)[C@@H](C)N2CCc3sc(-c4nc(N[C@@H](C)CO)ncc4C)cc3C2=O)c1
[b] C[C@@H](NC(=O)c1nc2cc3c(-c4ccncc4)n[nH]c3c(Cl)c2[nH]1)c1ccccc1
[c] CC(O)CCN1CCN(c2ccc(Nc3ncc4ccc(=O)n([C@@H]5CC6CCC5C6)c4n3)cc2)CC1 (stereo partly drawn)
Asked: Rank ascending by pIC50. Note for the reader: the ranking is given by listing the labels in the order requested.
Given back: c, a, b

[1] COc1cc(F)cc([C@@H](CO)N2Cc3cc(-c4nc(Nc5ccnn5C)ncc4C)cn3C2=O)c1
[2] C[C@@H](OC(=O)c1nc2cc3c(-c4ccncc4)n[nH]c3cc2[nH]1)c1ccccc1
Asked: Lab notebook, comparison: 1 versus 2 , higher pIC50 goes to which? Return value: the label identifying the chosen record.
Given back: 2
(2: 8.81, 1: 8.05)

[A] C[C@@H](NC(=O)c1nc2cc3c(-c4ccncc4)n[nH]c3cc2[nH]1)c1ccc(Br)cc1
[B] O=C(NC(CCO)c1ccccc1)c1nc2cc3c(-c4ccncc4)n[nH]c3cc2[nH]1 (stereo not drawn)
Asked: Hello, I am sorting some records. Could you say if A or B has the smaller pIC50 value? Return value: the label identifying the chosen record.
Given back: A
(A: 8.19, B: 8.66)

[I] C[C@@H](CO)Nc1ncc(Cl)c(-c2cc3n(c2)C(=O)N([C@H](CO)c2cccc(Cl)c2)C3)n1
[II] CNC[C@H](c1cccc(Cl)c1)N1Cc2cc(-c3nc(Nc4ccnn4C)ncc3C)cn2C1=O
Asked: Lab notebook, comparison: I versus II , higher pIC50 goes to which? Return value: the label identifying the chosen record.
Given back: II
(II: 8.70, I: 8.00)

[1] O=C(c1nc2cc3c(-c4ccncc4)n[nH]c3cc2[nH]1)N1C[C@@H]1c1ccccc1
[2] COC(CNC(=O)c1nc2cc3c(-c4ccncc4)n[nH]c3cc2[nH]1)c1ccccc1 (stereo not drawn)
Asked: Lab notebook, comparison: 1 versus 2 , higher pIC50 goes to which? Return value: the label identifying the chosen record.
Given back: 2
